- systemUnderTest: MKK7 (Homo sapiens)
- Sequence (O14733 1-419): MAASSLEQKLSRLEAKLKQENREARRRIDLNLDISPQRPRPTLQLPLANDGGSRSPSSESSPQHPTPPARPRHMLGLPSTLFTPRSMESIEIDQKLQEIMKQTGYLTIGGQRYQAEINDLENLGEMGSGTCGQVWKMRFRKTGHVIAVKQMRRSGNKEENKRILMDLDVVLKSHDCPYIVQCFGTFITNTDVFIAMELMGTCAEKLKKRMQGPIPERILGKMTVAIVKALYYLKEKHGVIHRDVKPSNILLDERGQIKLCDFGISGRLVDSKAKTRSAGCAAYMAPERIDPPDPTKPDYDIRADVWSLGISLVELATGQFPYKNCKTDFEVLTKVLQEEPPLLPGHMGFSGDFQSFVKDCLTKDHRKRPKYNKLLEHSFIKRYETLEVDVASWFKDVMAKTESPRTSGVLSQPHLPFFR
- measurementDescription: KINOMEscan competition binding assay, selectivity MKK7 versus MKK4
- conditionLabel: Test conc. 0.1 μM; ratio of percent of control; N/E* per footnote

>  <structureSmiles>
CCCS(=O)(=O)Nc1ccc(F)c(C(=O)c2c[nH]c3ncc(-c4cc5c(cc4Cl)OCO5)cc23)c1F

>  <Selectivity MKK7/MKK4>
9.1

$$$$
>  <structureSmiles>
CS(=O)(=O)Nc1cccc(C(=O)c2c[nH]c3ncc(-c4cc5c(cc4Cl)OCCO5)cc23)c1F

>  <Selectivity MKK7/MKK4>
8.7

$$$$

----------
- systemUnderTest: MKK4 (Homo sapiens, UniProt P45985)
- measurementDescription: KINOMEscan competition binding assay, MKK4
- conditionLabel: read-out: Potency MKK4 (derived from % of control values, PoC)
readoutType: remaining binding at 0.1 µM

>  <structureSmiles>
CCCS(=O)(=O)Nc1ccc(F)c(C(=O)c2c[nH]c3ncc(-c4ccc(C(C)C)cc4)cc23)c1F

>  <assayResult>
> 30%

$$$$
>  <structureSmiles>
CCCS(=O)(=O)Nc1ccc(F)c(C(=O)c2c[nH]c3ncc(-c4ccc(F)cc4Cl)cc23)c1F

>  <assayResult>
10 to 30%

$$$$
>  <structureSmiles>
CCCS(=O)(=O)Nc1ccc(F)c(C(=O)c2c[nH]c3ncc(-c4ccc(Cl)cc4F)cc23)c1F

>  <assayResult>
< 10%

$$$$
>  <structureSmiles>
CCCCS(=O)(=O)Nc1cccc(C(=O)c2c[nH]c3ncc(-c4ccc(Cl)cc4)cc23)c1F

>  <assayResult>
10 to 30%

$$$$
>  <structureSmiles>
CCCS(=O)(=O)Nc1cc(C)cc(C(=O)c2c[nH]c3ncc(-c4ccc(Cl)cc4)cc23)c1

>  <assayResult>
> 30%

$$$$
>  <structureSmiles>
CCCS(=O)(=O)Nc1ccc(F)c(C(=O)c2c[nH]c3ncc(-c4ccc(OCCOC)cc4Cl)cc23)c1F

>  <assayResult>
< 10%

$$$$
>  <structureSmiles>
CCCCS(=O)(=O)Nc1cccc(C(=O)c2c[nH]c3ncc(-c4ccc(F)cc4C)cc23)c1F

>  <assayResult>
< 10%

$$$$

----------
- systemUnderTest: MKK4 (Homo sapiens, UniProt P45985)
- Sequence (P45985 84-399): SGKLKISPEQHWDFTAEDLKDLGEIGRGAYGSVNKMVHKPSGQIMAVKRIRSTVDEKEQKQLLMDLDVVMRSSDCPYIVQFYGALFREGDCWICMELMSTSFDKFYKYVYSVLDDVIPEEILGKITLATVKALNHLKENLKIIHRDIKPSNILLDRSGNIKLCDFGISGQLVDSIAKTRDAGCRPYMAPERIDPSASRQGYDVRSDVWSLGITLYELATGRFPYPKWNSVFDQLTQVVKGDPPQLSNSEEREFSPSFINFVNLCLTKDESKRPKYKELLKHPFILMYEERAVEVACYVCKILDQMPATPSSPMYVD
- measurementDescription: KINOMEscan competition binding assay, MKK4
- conditionLabel: read-out: Potency MKK4 (derived from % of control values, PoC)
// remaining binding at 0.1 µM lookup, one value per entry
readoutType: remaining binding at 0.1 µM

>  <structureSmiles>
CCCS(=O)(=O)Nc1ccc(F)c(C(=O)c2c[nH]c3ncc(-c4ccccc4O)cc23)c1F

>  <readoutType>
remaining binding at 0.1 µM

>  <assayResult>
> 30%

$$$$
>  <structureSmiles>
CCCCS(=O)(=O)Nc1cccc(C(=O)c2c[nH]c3ncc(-c4cc5c(cc4Cl)OCO5)cc23)c1F

>  <readoutType>
remaining binding at 0.1 µM

>  <assayResult>
< 10%

$$$$
>  <structureSmiles>
CCCS(=O)(=O)Nc1ccc(F)c(C(=O)c2c[nH]c3ncc(-c4ccc(C#N)cc4)cc23)c1F

>  <readoutType>
remaining binding at 0.1 µM

>  <assayResult>
10 to 30%

$$$$
>  <structureSmiles>
CCCS(=O)(=O)Nc1ccc(F)c(C(=O)c2c[nH]c3ncc(-c4ccc(OCC5CC5)cc4Cl)cc23)c1F

>  <readoutType>
remaining binding at 0.1 µM

>  <assayResult>
> 30%

$$$$
>  <structureSmiles>
CCCS(=O)(=O)Nc1ccc(F)c(C(=O)c2c[nH]c3ncc(-c4ccc(O)cc4Cl)cc23)c1F

>  <readoutType>
remaining binding at 0.1 µM

>  <assayResult>
< 10%

$$$$
>  <structureSmiles>
CCCS(=O)(=O)Nc1ccc(F)c(C(=O)c2c[nH]c3ncc(-c4cc5c(cc4Cl)OCCO5)cc23)c1F

>  <readoutType>
remaining binding at 0.1 µM

>  <assayResult>
< 10%

$$$$
>  <structureSmiles>
CCCS(=O)(=O)Nc1ccc(F)c(C(=O)c2c[nH]c3ncc(-c4ccc(OCC)cc4Cl)cc23)c1F

>  <readoutType>
remaining binding at 0.1 µM

>  <assayResult>
< 10%

$$$$
>  <structureSmiles>
CCCS(=O)(=O)Nc1ccc(F)c(C(=O)c2c[nH]c3ncc(-c4ccc(F)cc4)cc23)c1F

>  <readoutType>
remaining binding at 0.1 µM

>  <assayResult>
10 to 30%

$$$$
>  <structureSmiles>
Cc1cc(F)ccc1-c1cnc2[nH]cc(C(=O)c3cccc(NS(C)(=O)=O)c3F)c2c1

>  <readoutType>
remaining binding at 0.1 µM

>  <assayResult>
< 10%

$$$$
>  <structureSmiles>
CCCCS(=O)(=O)Nc1cccc(C(=O)c2c[nH]c3ncc(-c4cc5c(cc4Cl)OCCO5)cc23)c1F

>  <readoutType>
remaining binding at 0.1 µM

>  <assayResult>
< 10%

$$$$

----------
// Selectivity MKK7/MKK4 lookup, one value per entry
- systemUnderTest: MKK7 (Homo sapiens)
- measurementDescription: KINOMEscan competition binding assay, selectivity MKK7 versus MKK4
- conditionLabel: Test conc. 0.1 μM; ratio of percent of control; N/E* per footnote

>  <structureSmiles>
CS(=O)(=O)Nc1cccc(C(=O)c2c[nH]c3ncc(-c4ccccc4Cl)cc23)c1F

>  <Selectivity MKK7/MKK4>
5.3

$$$$
>  <structureSmiles>
CCCS(=O)(=O)Nc1ccc(F)c(C(=O)c2c[nH]c3ncc(-c4ccc5c(c4)OCO5)cc23)c1F

>  <Selectivity MKK7/MKK4>
270

$$$$

----------
- systemUnderTest: BRaf (Homo sapiens, UniProt P15056)
- Sequence (P15056 whole entry): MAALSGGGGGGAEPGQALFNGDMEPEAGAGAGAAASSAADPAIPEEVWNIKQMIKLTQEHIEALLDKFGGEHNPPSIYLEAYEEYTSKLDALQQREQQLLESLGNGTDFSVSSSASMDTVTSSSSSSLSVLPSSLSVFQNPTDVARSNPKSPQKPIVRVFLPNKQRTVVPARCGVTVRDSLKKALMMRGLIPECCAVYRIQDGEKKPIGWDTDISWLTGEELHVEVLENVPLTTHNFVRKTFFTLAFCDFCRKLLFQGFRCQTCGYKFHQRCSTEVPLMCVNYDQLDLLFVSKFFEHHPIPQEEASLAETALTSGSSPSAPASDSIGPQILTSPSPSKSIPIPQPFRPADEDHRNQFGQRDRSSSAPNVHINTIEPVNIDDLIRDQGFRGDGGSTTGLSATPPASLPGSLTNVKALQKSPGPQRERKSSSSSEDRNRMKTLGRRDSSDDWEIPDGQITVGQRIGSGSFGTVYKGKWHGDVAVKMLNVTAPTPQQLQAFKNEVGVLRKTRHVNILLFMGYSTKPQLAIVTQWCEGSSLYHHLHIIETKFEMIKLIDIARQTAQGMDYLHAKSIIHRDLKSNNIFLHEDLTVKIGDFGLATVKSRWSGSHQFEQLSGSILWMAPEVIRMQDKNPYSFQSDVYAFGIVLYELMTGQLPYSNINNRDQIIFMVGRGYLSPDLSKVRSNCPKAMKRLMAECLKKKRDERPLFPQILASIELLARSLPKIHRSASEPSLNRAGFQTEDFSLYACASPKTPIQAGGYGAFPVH
- measurementDescription: KINOMEscan competition binding assay, selectivity BRaf versus MKK4
- conditionLabel: Test conc. 0.1 μM; ratio of percent of control; N/E* per footnote
Lab note: anything with Selectivity BRaf/MKK4 below 5 is marked label 1; values at 5 or higher are marked label 0.

>  <structureSmiles>
CCCS(=O)(=O)Nc1ccc(F)c(C(=O)c2c[nH]c3ncc(-c4cc5c(cc4Cl)OCCO5)cc23)c1F

>  <discreteLabel>
label 0

$$$$
>  <structureSmiles>
CS(=O)(=O)Nc1cccc(C(=O)c2c[nH]c3ncc(-c4ccccc4Cl)cc23)c1F

>  <discreteLabel>
label 0

$$$$
>  <structureSmiles>
Cc1cc(F)ccc1-c1cnc2[nH]cc(C(=O)c3cccc(NS(C)(=O)=O)c3F)c2c1

>  <discreteLabel>
label 0

$$$$
>  <structureSmiles>
CCCS(=O)(=O)Nc1ccc(F)c(C(=O)c2c[nH]c3ncc(-c4cccc5ccccc45)cc23)c1F

>  <discreteLabel>
label 1

$$$$
>  <structureSmiles>
CCCS(=O)(=O)Nc1ccc(F)c(C(=O)c2c[nH]c3ncc(-c4ccccc4)cc23)c1F

>  <discreteLabel>
label 0

$$$$
>  <structureSmiles>
CCCS(=O)(=O)Nc1ccc(F)c(C(=O)c2c[nH]c3ncc(-c4ccc(F)c(F)c4)cc23)c1F

>  <discreteLabel>
label 1

$$$$
>  <structureSmiles>
CCCS(=O)(=O)Nc1ccc(F)c(C(=O)c2c[nH]c3ncc(-c4ccc5c(c4)OCCO5)cc23)c1F

>  <discreteLabel>
label 1

$$$$
>  <structureSmiles>
CCCCS(=O)(=O)Nc1cccc(C(=O)c2c[nH]c3ncc(-c4ccc5c(c4)OCCO5)cc23)c1F

>  <discreteLabel>
label 0

$$$$
>  <structureSmiles>
CCCS(=O)(=O)Nc1ccc(F)c(C(=O)c2c[nH]c3ncc(-c4ccc(Cl)cc4F)cc23)c1F

>  <discreteLabel>
label 0

$$$$
>  <structureSmiles>
CCCS(=O)(=O)Nc1ccc(F)c(C(=O)c2c[nH]c3ncc(-c4ccc(F)cc4)cc23)c1F

>  <discreteLabel>
label 0

$$$$

Entry source: patent US11040027B2
